system-name: full-length human GLP-1R with an N-terminal FLAG tag (human, UniProt P43220 24-463)
measurement-description: cell-based or functional assay
Starred links: 1 amine or outer side, 2 acyl side, 3 side chain; linkers in the order of their positions; H or OH if unused. Non-standard residues stand in square brackets, D forms with d. Groups on a side chain read outwards from the residue. No end group written: not given here. *: point of attachment. C20 diacid = O=C(O)CCCCCCCCCCCCCCCCCCC(=O)*; C18 diacid = O=C(O)CCCCCCCCCCCCCCCCC(=O)*; C17 diacid = O=C(O)CCCCCCCCCCCCCCCC(=O)*; γGlu = O=C(O)[C@H](CCC(=O)[*:2])N[*:1]; NMeY = CN[C@@H](Cc1ccc(O)cc1)C(=O)O; AEEA = NCCOCCOCC(=O)O; E1 = not defined here; K1 = not defined here; Aib = CC(C)(N)C(=O)O
metric: Human GLP1R cAMP EC50, HEK293T (nM)
A number alone suffices; assume nM.

1) [NMeY][Aib]EGTFISDYSIALDR[Aib]K([AEEA-AEEA-γGlu-γGlu-C20 diacid])Q[Aib]NFVNWLLAQSPSSGAPPPS-NH2 [Compound No. 99]: 479

For the binder YXEGTFISDYSIAXDRXAQXNFVNWLLAQSPG (N-methyl Tyr 1; Aib at 2,17,20; Lys(G5-C18 diacid) at 14; C-terminal OH) [Compound No. 114] , what Human GLP1R cAMP EC50, HEK293T is on record?
11.7

For the binder YXEGTFISDYSIALDRXAQXDFVNWLLAQSPG (N-methyl Tyr 1; Aib at 2,20; Lys(G5-C18 diacid) at 17; C-terminal OH) [Compound No. 113] , what Human GLP1R cAMP EC50, HEK293T is on record?
13.5

For the binder [NMeY][Aib]EGTFISDYSI[Aib]LDR[Aib]AQ[Aib]NFVNWLLAQK([2OEGgEgE-C20 diacid])PSSGAPPPS-NH2 [Compound No. 69] , what Human GLP1R cAMP EC50, HEK293T is on record?
102

For the binder YXEGTFISDYSIAXDRXAQXDFVNWLLAQSPG (N-terminus H; Aib at 2,17,20; Lys(G5-C18 diacid) at 14; C-terminal OH) [Compound No. 128] , what Human GLP1R cAMP EC50, HEK293T is on record?
7.24

For the binder YXEGTFISDYSIXXDRAAQADFVEWLLAQRG (N-terminus H; Aib at 2,13; Lys(G5-C18 diacid) at 14; C-terminal OH) [Compound No. 148] , what Human GLP1R cAMP EC50, HEK293T is on record?
8.71

For the binder YXEGTFISDYSIALDSXAQXDFVNWLLAQKG (N-methyl Tyr 1; Aib at 2,20; Lys(G5-C18 diacid) at 17; C-terminal OH) [Compound No. 78] , what Human GLP1R cAMP EC50, HEK293T is on record?
26.9

For the binder [NMeY][Aib]EGTFISDYSI[Aib]LDR[Aib]AQ[Aib]K([2OEGgEgE-C18 diacid])FVNWLLAQSPG-OH [Compound No. 85] , what Human GLP1R cAMP EC50, HEK293T is on record?
41.7

For the binder [NMeY][Aib]EGTFISDYSIAK([G5-γGlu-γGlu-C18 diacid])DR[Aib]AQ[Aib]NFVNWLLAQRPSSGAPPPS-NH2 [Compound No. 34] , what Human GLP1R cAMP EC50, HEK293T is on record?
1000

For the binder [NMeY][Aib]EGTFISDYSI[Aib]LDR[Aib]AQ[Aib]NFVNWLLAQK([AEEA-AEEA-γGlu-γGlu-C17 diacid])PSSGAPPPS-NH2 [Compound No. 16] , what Human GLP1R cAMP EC50, HEK293T is on record?
35.1

For the binder YXEGTFISDYSIAXDRXAQXDFVNWLLAQSPG (N-methyl Tyr 1; Aib at 2,17,20; Lys(G5-C18 diacid) at 14; C-terminal OH) [Compound No. 84] , what Human GLP1R cAMP EC50, HEK293T is on record?
58.9

For the binder YXEGTFISDYSIXLDRXAQXDFVNWLLAQSPG (N-methyl Tyr 1; Aib at 2,13,20; Lys(G5-C18 diacid) at 17; C-terminal OH) [Compound No. 88] , what Human GLP1R cAMP EC50, HEK293T is on record?
13.5

For the binder [NMeY][Aib]EGTFISDYSIA[K1]DRA[E1]Q[Aib]K([AEEA-AEEA-γGlu-γGlu-C18 diacid])FVNWLLAQRG-OH (reading uncertain; also: 'K1' at 14 and 'E1' at 18, not explained) [Compound No. 123] , what Human GLP1R cAMP EC50, HEK293T is on record?
74.1
